The origin of these recorded values is patent US7709441B2.

target: IP3R1 (Mus musculus, UniProt P11881); assay: [3H]IP3 binding assay with purified IP3R1 in the presence or absence of CARP (Scatchard plot); conditions: in the presence of CARP; mean of three separate experiments; read-out: dissociation constant (Kd±S.D.) of IP3 binding to IP3R1
Sequence (P11881 whole entry): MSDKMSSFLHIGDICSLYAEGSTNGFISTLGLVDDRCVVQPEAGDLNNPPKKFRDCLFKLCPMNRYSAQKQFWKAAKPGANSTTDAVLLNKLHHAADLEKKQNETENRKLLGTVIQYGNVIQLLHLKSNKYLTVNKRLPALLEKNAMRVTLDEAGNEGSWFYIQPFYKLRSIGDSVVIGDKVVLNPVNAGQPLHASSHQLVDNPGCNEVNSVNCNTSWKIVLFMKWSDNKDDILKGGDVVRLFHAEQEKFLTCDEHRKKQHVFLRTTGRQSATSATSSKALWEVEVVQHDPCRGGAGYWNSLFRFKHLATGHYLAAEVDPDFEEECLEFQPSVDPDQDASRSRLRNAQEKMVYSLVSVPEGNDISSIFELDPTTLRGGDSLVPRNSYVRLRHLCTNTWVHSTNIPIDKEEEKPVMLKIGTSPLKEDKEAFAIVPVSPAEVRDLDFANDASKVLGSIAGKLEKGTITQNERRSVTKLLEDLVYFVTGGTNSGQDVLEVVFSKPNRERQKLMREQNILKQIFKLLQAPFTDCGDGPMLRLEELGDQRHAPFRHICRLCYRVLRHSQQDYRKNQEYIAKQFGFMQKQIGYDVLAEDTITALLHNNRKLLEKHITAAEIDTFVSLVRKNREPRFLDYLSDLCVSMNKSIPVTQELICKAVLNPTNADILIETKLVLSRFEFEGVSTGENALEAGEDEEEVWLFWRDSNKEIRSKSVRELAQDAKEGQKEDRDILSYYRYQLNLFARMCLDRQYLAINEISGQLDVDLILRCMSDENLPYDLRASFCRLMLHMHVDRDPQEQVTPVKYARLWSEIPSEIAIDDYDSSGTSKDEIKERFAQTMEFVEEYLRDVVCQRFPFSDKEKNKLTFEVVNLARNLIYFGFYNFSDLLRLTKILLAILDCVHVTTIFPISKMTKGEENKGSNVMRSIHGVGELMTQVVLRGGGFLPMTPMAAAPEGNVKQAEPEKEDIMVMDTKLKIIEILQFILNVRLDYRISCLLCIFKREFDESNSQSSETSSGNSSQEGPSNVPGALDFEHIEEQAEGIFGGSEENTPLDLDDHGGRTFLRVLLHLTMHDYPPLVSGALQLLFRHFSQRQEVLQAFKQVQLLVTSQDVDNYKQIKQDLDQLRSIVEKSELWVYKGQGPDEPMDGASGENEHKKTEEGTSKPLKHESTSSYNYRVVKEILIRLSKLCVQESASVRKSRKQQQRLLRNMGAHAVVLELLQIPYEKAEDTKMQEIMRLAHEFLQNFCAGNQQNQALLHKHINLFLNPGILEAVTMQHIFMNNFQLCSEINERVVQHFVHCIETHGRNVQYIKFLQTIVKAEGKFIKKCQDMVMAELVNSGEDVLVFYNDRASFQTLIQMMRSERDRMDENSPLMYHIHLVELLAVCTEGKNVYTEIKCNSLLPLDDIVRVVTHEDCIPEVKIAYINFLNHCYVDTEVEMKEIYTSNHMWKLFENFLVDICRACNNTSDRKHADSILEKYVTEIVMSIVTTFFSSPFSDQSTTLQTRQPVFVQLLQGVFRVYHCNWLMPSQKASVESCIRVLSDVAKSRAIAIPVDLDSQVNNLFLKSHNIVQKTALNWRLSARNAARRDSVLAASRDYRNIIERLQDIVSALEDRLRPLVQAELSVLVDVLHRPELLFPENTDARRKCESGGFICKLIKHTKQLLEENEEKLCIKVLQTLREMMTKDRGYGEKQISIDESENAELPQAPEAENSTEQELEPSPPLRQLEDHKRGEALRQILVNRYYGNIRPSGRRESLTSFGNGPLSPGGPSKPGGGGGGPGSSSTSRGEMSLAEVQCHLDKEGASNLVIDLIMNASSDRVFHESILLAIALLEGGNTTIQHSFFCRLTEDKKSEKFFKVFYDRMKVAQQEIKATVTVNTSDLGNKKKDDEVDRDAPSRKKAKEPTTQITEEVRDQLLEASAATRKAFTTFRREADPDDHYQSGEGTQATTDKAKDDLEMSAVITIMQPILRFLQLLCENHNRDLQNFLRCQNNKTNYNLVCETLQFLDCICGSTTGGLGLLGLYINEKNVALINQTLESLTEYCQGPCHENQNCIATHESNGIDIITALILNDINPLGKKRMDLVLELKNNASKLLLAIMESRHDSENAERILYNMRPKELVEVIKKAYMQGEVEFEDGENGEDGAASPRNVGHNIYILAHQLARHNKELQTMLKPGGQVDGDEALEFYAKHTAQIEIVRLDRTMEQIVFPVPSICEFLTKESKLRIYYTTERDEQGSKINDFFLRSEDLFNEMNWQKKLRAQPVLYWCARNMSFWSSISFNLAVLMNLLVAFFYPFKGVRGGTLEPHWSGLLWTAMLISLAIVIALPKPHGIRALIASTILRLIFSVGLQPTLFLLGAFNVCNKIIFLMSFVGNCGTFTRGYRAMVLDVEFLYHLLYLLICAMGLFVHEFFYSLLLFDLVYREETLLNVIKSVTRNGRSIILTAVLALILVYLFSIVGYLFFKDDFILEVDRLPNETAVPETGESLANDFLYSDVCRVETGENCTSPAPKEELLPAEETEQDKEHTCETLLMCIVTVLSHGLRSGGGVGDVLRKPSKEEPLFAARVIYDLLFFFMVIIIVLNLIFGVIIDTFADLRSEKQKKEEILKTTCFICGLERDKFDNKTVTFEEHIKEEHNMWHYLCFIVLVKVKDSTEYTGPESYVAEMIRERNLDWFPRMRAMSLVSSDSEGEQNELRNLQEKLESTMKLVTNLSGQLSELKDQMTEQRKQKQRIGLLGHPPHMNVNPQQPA
Endpoint: Kd (nM)

> print(dat)
                                   compound  observed.result
1  O=P(O)(O)OC1C(O)C(O)C(OP(=O)(O)O)C(OP(=O)(O)O)C1O (stereo not shown) [IP3, inositol-1,4,5-triphosphate]             33.5
